These data points were gathered from patent US20200263231A1.

Reported Fluorescence Enhancement values for a set of compounds
- System: calf thymus DNA
- test name: Fluorescence emission and enhancement of compounds bound to calf thymus DNA
- Type: binding
- test parameters: 0.8 μM compound with 500 ng/ml calf thymus DNA in TE buffer; emission area 500-715 nm compared to compound 1, defined as 1000-fold
recorded endpoint: Fluorescence Enhancement (fold)

[[record]]
compound = "CCCN(CCC[N+](C)(C)CCO)C1=CC(=Cc2sc3ccccc3[n+]2C)c2ccc(OC)cc2N1c1ccccc1.[I-].[I-] [Compound 45]"
recorded_endpoint = "Fluorescence Enhancement"
reported_result = 1093

[[record]]
compound = "CCCCN(CCC[N+](C)(C)CC)C1=C/C(=C/c2sc3ccccc3[n+]2C)c2ccccc2N1c1ccccc1.[I-].[I-] [Compound 10]"
recorded_endpoint = "Fluorescence Enhancement"
reported_result = 926

[[record]]
compound = "CCN(CC[N+](C)(C)Cc1ccccc1)C1=C/C(=C/c2sc3ccccc3[n+]2C)c2ccc(OC)cc2N1c1ccccc1.[I-].[I-] [Compound 60]"
recorded_endpoint = "Fluorescence Enhancement"
reported_result = 878

[[record]]
compound = "CN(C)CCCC1=C/C(=C/c2sc3ccccc3[n+]2C)c2ccccc2N1c1ccccc1 [Compound 64]"
recorded_endpoint = "Fluorescence Enhancement"
reported_result = 204

[[record]]
compound = "CCCCN(CCC[N+](C)(C)Cc1cccc(OC)c1)C1=CC(=Cc2sc3ccccc3[n+]2C)c2ccc(OC)cc2N1c1ccccc1.[Br-].[I-] [Compound 40]"
recorded_endpoint = "Fluorescence Enhancement"
reported_result = 1050

[[record]]
compound = "CCCCN(CCC[N+](C)(C)CC)C1=CC(=Cc2sc3ccccc3[n+]2C)c2ccc(OC)cc2N1c1ccccc1.[I-].[I-] [Compound 36]"
recorded_endpoint = "Fluorescence Enhancement"
reported_result = 1071

[[record]]
compound = "CCN(CCC[N+](C)(C)Cc1cccc(OC)c1)C1=C/C(=C/c2sc3ccccc3[n+]2C)c2ccccc2N1c1ccccc1.[Br-].[I-] [Compound 20]"
recorded_endpoint = "Fluorescence Enhancement"
reported_result = 871

[[record]]
compound = "CCN(CC[N+](C)(C)Cc1cccc(OC)c1)C1=C/C(=C/c2sc3ccccc3[n+]2C)c2ccccc2N1c1ccccc1.[Br-].[I-] [Compound 33]"
recorded_endpoint = "Fluorescence Enhancement"
reported_result = 652

[[record]]
compound = "CCN(CC[N+](C)(C)CC)C1=C/C(=C/c2sc3ccccc3[n+]2C)c2ccc(OC)cc2N1c1ccccc1.[I-].[I-] [Compound 57]"
recorded_endpoint = "Fluorescence Enhancement"
reported_result = 877

[[record]]
compound = "CCN(CCC[N+](C)(C)Cc1ccccc1)C1=C/C(=C/c2sc3ccccc3[n+]2C)c2ccccc2N1c1ccccc1.[Br-].[I-] [Compound 19]"
recorded_endpoint = "Fluorescence Enhancement"
reported_result = 884

[[record]]
compound = "CCN(CCCN(C)C)C1=CC(=Cc2sc3ccccc3[n+]2C)c2ccc(OC)cc2N1c1ccccc1.[I-] [Compound 48]"
recorded_endpoint = "Fluorescence Enhancement"
reported_result = 1016

[[record]]
compound = "C[n+]1c(/C=C2/C=C(n3ccnc3)N(c3ccccc3)c3ccccc32)sc2ccccc21.[I-] [Compound 61]"
recorded_endpoint = "Fluorescence Enhancement"
reported_result = 26

[[record]]
compound = "CCN(CCC[N+](C)(C)CCO)C1=C/C(=C/c2sc3ccccc3[n+]2C)c2ccccc2N1c1ccccc1.[I-].[I-] [Compound 18]"
recorded_endpoint = "Fluorescence Enhancement"
reported_result = 882


* * *

- System: calf thymus DNA
- test name: Fluorescence emission and enhancement of compounds bound to calf thymus DNA
- Assay type: binding
- test parameters: 0.8 μM compound with 500 ng/ml calf thymus DNA in TE buffer; emission area 500-715 nm compared to compound 1, defined as 1000-fold
recorded endpoint: Fluorescence Enhancement (fold)

[[record]]
line_notation = "CCCCN(CCC[N+](C)(C)CCO)C1=C/C(=C/c2sc3ccccc3[n+]2C)c2ccccc2N1c1ccccc1.[I-].[I-]"
target_or_test_system = "calf thymus DNA"
readout_units = "fold"
reported_result = 937

[[record]]
line_notation = "CCCN(CCCN(C)C)C1=CC(=Cc2sc3ccccc3[n+]2C)c2ccc(OC)cc2N1c1ccccc1.[I-]"
target_or_test_system = "calf thymus DNA"
readout_units = "fold"
reported_result = 1020

[[record]]
line_notation = "CCN(CCC[N+](C)(C)Cc1ccccc1)C1=C/C(=C/c2sc3ccccc3[n+]2C)c2ccc(OC)cc2N1c1ccccc1.[Br-].[I-]"
target_or_test_system = "calf thymus DNA"
readout_units = "fold"
reported_result = 1011

[[record]]
line_notation = "CCCN(CCC[N+](C)(C)CCO)C1=C/C(=C/c2sc3ccccc3[n+]2C)c2ccccc2N1c1ccccc1.[I-].[I-]"
target_or_test_system = "calf thymus DNA"
readout_units = "fold"
reported_result = 954

[[record]]
line_notation = "CCCN(CCC[N+](C)(C)C)C1=CC(=Cc2sc3ccccc3[n+]2C)c2ccc(OC)cc2N1c1ccccc1.[I-].[I-]"
target_or_test_system = "calf thymus DNA"
readout_units = "fold"
reported_result = 1070

[[record]]
line_notation = "CCN(CCC[N+](C)(C)C)C1=CC(=Cc2sc3ccccc3[n+]2C)c2ccc(OC)cc2N1c1ccccc1.[I-].[I-]"
target_or_test_system = "calf thymus DNA"
readout_units = "fold"
reported_result = 1035

[[record]]
line_notation = "COc1cccc(C[N+](C)(C)CCCN(C)C2=C/C(=C/c3sc4ccccc4[n+]3C)c3ccccc3N2c2ccccc2)c1.[Br-].[I-]"
target_or_test_system = "calf thymus DNA"
readout_units = "fold"
reported_result = 668

[[record]]
line_notation = "CN(C)CCCN(C)C1=C/C(=C/c2sc3ccccc3[n+]2C)c2ccccc2N1c1ccccc1.[I-]"
target_or_test_system = "calf thymus DNA"
readout_units = "fold"
reported_result = 639

[[record]]
line_notation = "CCN(CCCN(C)C)C1=C/C(=C/c2sc3ccccc3[n+]2C)c2ccccc2N1c1ccccc1.[I-]"
target_or_test_system = "calf thymus DNA"
readout_units = "fold"
reported_result = 864

[[record]]
line_notation = "CCCCN(CCC[N+](C)(C)Cc1cccc(OC)c1)C1=C/C(=C/c2sc3ccccc3[n+]2C)c2ccccc2N1c1ccccc1.[Br-].[I-]"
target_or_test_system = "calf thymus DNA"
readout_units = "fold"
reported_result = 907

[[record]]
line_notation = "CN(CCC[N+](C)(C)CCO)C1=C/C(=C/c2sc3ccccc3[n+]2C)c2ccccc2N1c1ccccc1.[I-].[I-]"
target_or_test_system = "calf thymus DNA"
readout_units = "fold"
reported_result = 640

[[record]]
line_notation = "CCCCN(CCC[N+](C)(C)C)C1=C/C(=C/c2sc3ccccc3[n+]2C)c2ccccc2N1c1ccccc1.[I-].[I-]"
target_or_test_system = "calf thymus DNA"
readout_units = "fold"
reported_result = 908

[[record]]
line_notation = "CCN(CCC[N+](C)(C)Cc1cccc(OC)c1)C1=CC(=Cc2sc3ccccc3[n+]2C)c2ccc(OC)cc2N1c1ccccc1.[Br-].[I-]"
target_or_test_system = "calf thymus DNA"
readout_units = "fold"
reported_result = 1008


* * *

- Test system: calf thymus DNA
- test name: Fluorescence emission and enhancement of compounds bound to calf thymus DNA
- Type: binding
- test parameters: 0.8 μM compound with 500 ng/ml calf thymus DNA in TE buffer, excited at 488 nm
recorded endpoint: Emission Max

[[record]]
line_notation = "CN(CCC[N+](C)(C)C)C1=C/C(=C/c2sc3ccccc3[n+]2C)c2ccccc2N1c1ccccc1.[I-].[I-]"
target_or_test_system = "calf thymus DNA"
recorded_endpoint = "Emission Max"
reported_result = "520 nm"

[[record]]
line_notation = "C[n+]1c(/C=C2/C=C(n3ccnc3)N(c3ccccc3)c3ccccc32)sc2ccccc21.[I-]"
target_or_test_system = "calf thymus DNA"
recorded_endpoint = "Emission Max"
reported_result = "540 nm"

[[record]]
line_notation = "CCCCN(CCC[N+](C)(C)CCO)C1=CC(=Cc2sc3ccccc3[n+]2C)c2ccc(OC)cc2N1c1ccccc1.[I-].[I-]"
target_or_test_system = "calf thymus DNA"
recorded_endpoint = "Emission Max"
reported_result = "520 nm"

[[record]]
line_notation = "CCCCN(CCC[N+](C)(C)C)C1=C/C(=C/c2sc3ccccc3[n+]2C)c2ccccc2N1c1ccccc1.[I-].[I-]"
target_or_test_system = "calf thymus DNA"
recorded_endpoint = "Emission Max"
reported_result = "525 nm"

[[record]]
line_notation = "CCN(CCN(C)C)C1=C/C(=C/c2sc3ccccc3[n+]2C)c2ccc(OC)cc2N1c1ccccc1.[I-]"
target_or_test_system = "calf thymus DNA"
recorded_endpoint = "Emission Max"
reported_result = "520 nm"

[[record]]
line_notation = "CCN(CC[N+](C)(C)CC)C1=C/C(=C/c2sc3ccccc3[n+]2C)c2ccccc2N1c1ccccc1.[Cl-].[I-]"
target_or_test_system = "calf thymus DNA"
recorded_endpoint = "Emission Max"
reported_result = "526 nm"

[[record]]
line_notation = "CCCN(CCC[N+](C)(C)CCO)C1=C/C(=C/c2sc3ccccc3[n+]2C)c2ccccc2N1c1ccccc1.[I-].[I-]"
target_or_test_system = "calf thymus DNA"
recorded_endpoint = "Emission Max"
reported_result = "523 nm"

